Target: T1, Recombinant Human CD14/His Protein (B294801) (human, UniProt P08571 20-352, limits assumed)
T1 construct: Bought His-tagged recombinant human CD14; also called recombinant human CD14 antigen; CD14 antigen; not shown: histidine tag
T1 sequence (looked up): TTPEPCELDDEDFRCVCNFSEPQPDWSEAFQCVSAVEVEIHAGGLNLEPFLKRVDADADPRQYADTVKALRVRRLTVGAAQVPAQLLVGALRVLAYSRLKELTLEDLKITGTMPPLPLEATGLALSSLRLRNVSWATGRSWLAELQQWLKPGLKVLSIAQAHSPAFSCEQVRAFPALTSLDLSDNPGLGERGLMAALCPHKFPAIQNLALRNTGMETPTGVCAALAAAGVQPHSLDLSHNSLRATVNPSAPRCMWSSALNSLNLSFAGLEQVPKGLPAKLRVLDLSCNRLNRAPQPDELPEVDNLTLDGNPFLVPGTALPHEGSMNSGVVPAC
Assay: SPR (Biacore 8K), antibody captured on Protein A chip, CD14-His analyte 0.78125-25 nM, 1:1 binding
# Lookup of reported kon keyed by entry
A number alone suffices; assume M⁻¹ s⁻¹.

# annotated cases, reported kon shown
[[record]]
binder = "Antibody No. D6DD3D001 (HU1127-mVH/mVL) (antibody, human IgG1, kappa, V domains shown, Mouse variable domains of Atibuclimab on human IgG1 constant regions (hFc, 146 kDa); also called Original IgG1 antibody; mouse antibody) VH: DVQLQQSGPGLVKPSQSLSLTCTVTGYSITSDSAWNWIRQFPGNRLEWMGYISYSGSTSYNPSLKSRISITRDTSKNQFFLQLNSVTTEDTATYYCVRGLRFAYWGQGTLVTVSS VL: DIVLTQSPASLAVSLGQRATISCRASESVDSYVNSFLHWYQQKPGQPPKLLIYRASNLQSGIPARFSGSGSRTDFTLTINPVEADDVATYYCQQSNEDPYTFGGGTKLEIKR"
observed_result = "1.77e+06"

[[record]]
binder = "Antibody No. D6DD3D007 (HU1127-hVH1/hVL2) (antibody, human IgG1, kappa, V domains shown, Humanized IgG1 (hFc)) VH: QVQLQESGPGLVKPSQTLSLTCTVSGGSISSDSAWNWIRQHPGKGLEWIGYISYSGSTSYNPSLKSRVTISRDTSKNQFSLKLSSVTAADTAVYYCVRGLRFAYWGQGTLVTVSS VL: DIVLTQSPDSLAVSLGERATINCRASESVDSYVNSFLHWYQQKPGQPPKLLIYRASNLQSGVPDRFSGSGSRTDFTLTISSLQAEDVAVYYCQQSNEDPYTFGQGTKLEIKR"
observed_result = "2.11e+06"


Entry Antibody No. D6DD3D002 (HU1127-hVH1/hVL1) (antibody, human IgG1, kappa, V domains shown, Humanized IgG1 (hFc)) VH: QVQLQESGPGLVKPSQTLSLTCTVSGGSISSDSAWNWIRQHPGKGLEWIGYISYSGSTSYNPSLKSRVTISRDTSKNQFSLKLSSVTAADTAVYYCVRGLRFAYWGQGTLVTVSS VL: EIVLTQSPATLSLSPGERATLSCRASESVDSYVNSFLHWYQQKPGQAPRLLIYRASNLQSGIPARFSGSGSRTDFTLTISSLEPEDVAVYYCQQSNEDPYTFGQGTKLEIKR — recorded kon = 1.69e+06

Entry Antibody No. D6DD3D012 (HU1127-hVH1/hVL3) (antibody, human IgG1, kappa, V domains shown, Humanized IgG1 (hFc)) VH: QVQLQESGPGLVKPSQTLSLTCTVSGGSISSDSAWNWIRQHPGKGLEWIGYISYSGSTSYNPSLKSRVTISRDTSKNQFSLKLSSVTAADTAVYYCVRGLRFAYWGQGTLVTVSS VL: DIQLTQSPSSLSASVGDRVTITCRASESVDSYVNSFLHWYQQKPGKAPKLLIYRASNLQSGVPSRFSGSGSRTDFTLTISSLQPEDVATYYCQQSNEDPYTFGQGTKLEIKR — recorded kon = 1.64e+06
